Value source: patent US11339161B2

Would you mind telling me the reported inhibition at 10 µM of each entry?
# target: UniProt:P35916
# assay.info: Z'-LYTE SelectScreen biochemical kinase assay FLT4 (VEGFR3)
# condition.context: 10 μmolar compound concentration; ATP at Km app; read-out: FLT4 (VEGFR3) inhibition

Some molecules with known inhibition at 10 µM results, for comparison:
Fc1cccc(-c2cccn3nc(Nc4ccc5[nH]cnc5c4)nc23)c1 [Cpd. 293 in WO09155551, reference compound]: > 80%
CCn1ncc2c1CCC(Nc1nc3c(-c4cccnc4)cccn3n1)C2 (stereo not shown): < 40%
CCn1ncc2c1CC[C@@H](Nc1nc3c(-c4ccc(F)c(Cl)c4)cccn3n1)C2: < 40%

Prompt line: // map CCn1ncc2c1CCC(Nc1nc3c(-c4ccc(OC)nc4)cccn3n1)C2 (stereo not shown) to recorded inhibition at 10 µM (system: UniProt:P35916)
Response line: 40 to 80%

====

# target: FLT4 (VEGFR3) (Homo sapiens, UniProt P35916)
# Sequence (P35916 25-1363): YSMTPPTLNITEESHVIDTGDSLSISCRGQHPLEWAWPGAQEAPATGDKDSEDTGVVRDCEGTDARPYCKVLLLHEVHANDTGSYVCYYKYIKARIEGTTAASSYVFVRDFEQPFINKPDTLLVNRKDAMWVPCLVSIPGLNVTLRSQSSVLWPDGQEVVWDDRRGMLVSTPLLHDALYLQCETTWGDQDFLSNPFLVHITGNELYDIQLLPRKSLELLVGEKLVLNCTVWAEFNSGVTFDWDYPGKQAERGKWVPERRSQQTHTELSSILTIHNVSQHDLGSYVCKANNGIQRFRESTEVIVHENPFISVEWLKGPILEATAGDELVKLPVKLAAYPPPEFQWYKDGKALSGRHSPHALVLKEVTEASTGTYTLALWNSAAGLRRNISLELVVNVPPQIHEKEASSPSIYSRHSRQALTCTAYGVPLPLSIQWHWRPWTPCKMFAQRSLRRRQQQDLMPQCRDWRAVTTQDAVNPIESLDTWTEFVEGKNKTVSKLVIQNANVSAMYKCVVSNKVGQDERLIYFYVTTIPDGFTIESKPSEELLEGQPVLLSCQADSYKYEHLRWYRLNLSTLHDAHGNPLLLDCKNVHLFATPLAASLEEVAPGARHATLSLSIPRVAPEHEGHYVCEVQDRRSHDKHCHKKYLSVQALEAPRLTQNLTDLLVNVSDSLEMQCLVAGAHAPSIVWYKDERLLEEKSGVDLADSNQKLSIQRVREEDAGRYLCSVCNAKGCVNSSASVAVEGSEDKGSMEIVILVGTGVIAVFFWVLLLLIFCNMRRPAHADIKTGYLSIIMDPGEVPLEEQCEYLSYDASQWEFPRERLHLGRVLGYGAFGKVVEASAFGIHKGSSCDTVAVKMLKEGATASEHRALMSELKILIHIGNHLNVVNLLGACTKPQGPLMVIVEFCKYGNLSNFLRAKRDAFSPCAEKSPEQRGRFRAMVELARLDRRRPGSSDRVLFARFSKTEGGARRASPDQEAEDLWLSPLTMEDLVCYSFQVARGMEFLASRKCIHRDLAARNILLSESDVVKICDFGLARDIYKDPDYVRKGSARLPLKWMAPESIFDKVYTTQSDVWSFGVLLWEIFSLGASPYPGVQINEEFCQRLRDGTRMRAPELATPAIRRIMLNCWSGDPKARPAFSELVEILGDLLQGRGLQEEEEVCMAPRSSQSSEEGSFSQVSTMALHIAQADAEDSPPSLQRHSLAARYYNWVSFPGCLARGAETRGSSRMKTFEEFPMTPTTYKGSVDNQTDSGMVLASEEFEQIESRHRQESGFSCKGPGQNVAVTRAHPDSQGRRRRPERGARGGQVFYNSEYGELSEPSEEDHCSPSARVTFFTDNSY
# assay.info: Z'-LYTE SelectScreen biochemical kinase assay FLT4 (VEGFR3)
# condition.context: read-out: % Inhibition mean FLT4 (VEGFR3)
measured.property: inhibition at 10 µM (%)
Numbers only, in %.

CCn1nnc2c1CCC(Nc1nc3c(-c4ccc(F)cc4C)cccn3n1)C2 (stereo not drawn): 15
CCn1ncc2c1CCC(Nc1nc3c(-c4cnccc4OC)cccn3n1)C2 (stereo not drawn): 52

Parameters: items (list). Returns: inhibition at 10 µM for each item.
1. CCn1ncc2c1CC[C@H](Nc1nc3c(-c4ccc(F)c(Cl)c4)cccn3n1)C2
2. CCn1ncc2c1CCC(Nc1nc3c(-c4cccc(Cl)c4)cccn3n1)C2 (stereo not drawn)

Response line:
1: 24; 2: 39

Parameters: items (list). Returns: inhibition at 10 µM for each item.
1. CCCn1ncc2c1CCC(Nc1nc3c(-c4ccc(F)cc4C)cccn3n1)C2 (stereo not drawn)
2. Cc1cc(F)ccc1-c1cccn2nc(NC3CCc4c(cnn4C(C)C)C3)nc12 (stereo not drawn)
3. CCn1nc(Cl)c2c1CCC(Nc1nc3c(-c4ccc(F)cc4C)cccn3n1)C2 (stereo not drawn)
4. CCn1ncc2c1CCC(Nc1nc3c(-c4ccccc4)cccn3n1)C2 (stereo not drawn)

Response line:
1. 11
2. 43
3. 19
4. 43

Parameters: items (list). Returns: inhibition at 10 µM for each item.
1. CCn1ncc2c1CCC(Nc1nc3c(-c4cccnc4OC)cccn3n1)C2 (stereo not drawn)
2. Cc1cc(F)ccc1-c1cccn2nc(Nc3ccc4c(cnn4C)c3)nc12
3. CCc1nn(C)c2c1CCC(Nc1nc3c(-c4ccc(F)cc4C)cccn3n1)C2 (stereo not drawn)

Response line:
1: 16; 2: 86; 3: 38

====

# Tested on: kinases
# assay.info: Z'-LYTE SelectScreen kinase panel: number of kinases with <40% inhibition out of 15 tested
# Format: biochemical
# condition.context: 10 μmolar (10000 nM) compound; [ATP] Km app; 15 kinases tested
measured.property: No. of kinases with <40% inhibition

Some compounds with known No. of kinases with <40% inhibition results, for comparison:
CCn1ncc2c1CCC(Nc1nc3c(-c4ccccc4)cccn3n1)C2 (stereo not shown) [Example 57]: 12/15
CCCCCn1ncc2c1CCC(Nc1nc3c(-c4ccc(F)cc4C)cccn3n1)C2 (stereo not shown) [Example 47]: 15/15
Cc1cc(F)ccc1-c1cccn2nc(NC3CCc4c(cnn4CC(C)C)C3)nc12 (stereo not shown) [Example 45]: 14/15
Cc1cc(F)ccc1-c1cccn2nc(NC3CCc4cnn(C)c4C3)nc12 (stereo not shown) [Example 40]: 13/15
CCn1nnc2c1CCC(Nc1nc3c(-c4ccc(F)cc4C)cccn3n1)C2 (stereo not shown) [Example 51]: 15/15

Parameters: items (list). Returns: No. of kinases with <40% inhibition for each item.
1. CCn1nc(Cl)c2c1CCC(Nc1nc3c(-c4ccc(F)cc4C)cccn3n1)C2 (stereo not shown) [Example 48]
2. CCCn1ncc2c1CCC(Nc1nc3c(-c4ccc(F)cc4C)cccn3n1)C2 (stereo not shown) [Example 43]
3. CCn1ncc2c1C(C)CC(Nc1nc3c(-c4cc(F)c(F)c(F)c4)cccn3n1)C2 (stereo not shown) [Example 49]
4. CCn1ncc2c1CCC(Nc1nc3c(-c4ccc(F)cc4C)cccn3n1)C2 (stereo not shown) [Example 42]
5. CCn1ncc2c1CCC(Nc1nc3c(-c4ccc(F)cc4)cccn3n1)C2 (stereo not shown) [Example 55]

Response line:
1. 14/15
2. 14/15
3. 14/15
4. 15/15
5. 13/15

====

# target: LYN B (Homo sapiens, UniProt P07948)
# Sequence (P07948 1-491 isoform P07948-2): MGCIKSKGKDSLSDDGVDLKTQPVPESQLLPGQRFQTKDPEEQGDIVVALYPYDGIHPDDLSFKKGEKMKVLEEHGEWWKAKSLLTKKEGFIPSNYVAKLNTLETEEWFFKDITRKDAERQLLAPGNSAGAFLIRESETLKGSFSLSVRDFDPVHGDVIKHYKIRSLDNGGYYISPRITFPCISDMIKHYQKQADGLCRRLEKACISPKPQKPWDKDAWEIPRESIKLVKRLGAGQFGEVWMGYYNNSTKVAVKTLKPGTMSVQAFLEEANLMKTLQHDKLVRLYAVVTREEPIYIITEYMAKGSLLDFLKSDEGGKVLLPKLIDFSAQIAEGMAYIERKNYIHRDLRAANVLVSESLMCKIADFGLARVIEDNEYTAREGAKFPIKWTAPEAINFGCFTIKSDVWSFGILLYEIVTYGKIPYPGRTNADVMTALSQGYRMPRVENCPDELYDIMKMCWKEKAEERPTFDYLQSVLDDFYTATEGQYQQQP
# assay.info: Z'-LYTE SelectScreen biochemical kinase assay LYN B
# condition.context: read-out: % Inhibition mean LYN B
measured.property: inhibition at 10 µM (%)
Numbers only, in %.

Some compounds with known inhibition at 10 µM results, for comparison:
CCCCCn1ncc2c1CCC(Nc1nc3c(-c4ccc(F)cc4C)cccn3n1)C2 (stereo not shown): 21
CCn1ncc2c1CCC(Nc1nc3c(-c4ccc(F)cc4C)cccn3n1)C2 (stereo not shown): 19
CCn1ncc2c1CCC(Nc1nc3c(-c4ccc(C)nc4)cccn3n1)C2 (stereo not shown): 20
CCn1ncc2c1CC[C@@H](Nc1nc3c(-c4ccc(F)c(Cl)c4)cccn3n1)C2: 17
Cc1cc(F)ccc1-c1cccn2nc(Nc3ccc4c(cnn4C)c3)nc12: 18
CCn1ncc2c1CCC(Nc1nc3c(-c4ccc(OC)nc4)cccn3n1)C2 (stereo not shown): 24

Could you now look at the following compound, please?
Prompt line: Please report the recorded inhibition at 10 µM for CCn1ncc2c1CCC(Nc1nc3c(-c4cnccc4OC)cccn3n1)C2 (stereo not shown) .
Response line: 22

====

# target: AURKA (Aurora A) (Homo sapiens)
# Sequence (O14965 whole entry): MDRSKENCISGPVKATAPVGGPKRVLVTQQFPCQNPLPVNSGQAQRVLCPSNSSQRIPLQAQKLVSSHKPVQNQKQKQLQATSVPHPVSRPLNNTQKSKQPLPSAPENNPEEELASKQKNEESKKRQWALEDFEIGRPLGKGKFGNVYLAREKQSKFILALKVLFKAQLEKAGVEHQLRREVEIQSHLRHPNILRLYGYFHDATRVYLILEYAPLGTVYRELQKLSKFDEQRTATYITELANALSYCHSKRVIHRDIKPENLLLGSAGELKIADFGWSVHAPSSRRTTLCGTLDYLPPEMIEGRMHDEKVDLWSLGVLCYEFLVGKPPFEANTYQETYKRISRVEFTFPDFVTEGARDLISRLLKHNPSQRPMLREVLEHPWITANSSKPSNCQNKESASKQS
# assay.info: Z'-LYTE SelectScreen biochemical kinase assay AURKA (Aurora A)
# condition.context: read-out: % Inhibition mean AURKA (Aurora A)
Binary call on inhibition at 10 µM: 1 from 20% upward, -1 beneath that.

CCn1ncc2c1CCC(Nc1nc3c(-c4cncc(Cl)c4)cccn3n1)C2 (stereo not drawn) [Example 73]: 1
CCn1ncc2c1CCC(Nc1nc3c(-c4cccnc4OC)cccn3n1)C2 (stereo not drawn) [Example 69]: 1
CCCn1ncc2c1CCC(Nc1nc3c(-c4ccc(F)cc4C)cccn3n1)C2 (stereo not drawn) [Example 43]: -1
Cc1cc(F)ccc1-c1cccn2nc(NC3CCc4c(cnn4CC(C)C)C3)nc12 (stereo not drawn) [Example 45]: -1
CCn1ncc2c1CCC(Nc1nc3c(-c4ccccc4C)cccn3n1)C2 (stereo not drawn) [Example 56]: 1
CCn1ncc2c1CCC(Nc1nc3c(-c4ccc(C)nc4)cccn3n1)C2 (stereo not drawn) [Example 67]: -1
CCn1ncc2c1C(C)CC(Nc1nc3c(-c4cc(F)c(F)c(F)c4)cccn3n1)C2 (stereo not drawn) [Example 49]: -1
CCn1ncc2c1CC[C@@H](Nc1nc3c(-c4ccc(F)cc4C)cccn3n1)C2 [Example R-42]: -1
CCCCn1ncc2c1CCC(Nc1nc3c(-c4ccc(F)cc4C)cccn3n1)C2 (stereo not drawn) [Example 46]: -1
CCn1nc(Cl)c2c1CCC(Nc1nc3c(-c4ccc(F)cc4C)cccn3n1)C2 (stereo not drawn) [Example 48]: -1

Prompt line: Given the entry CCn1ncc2c1CCC(Nc1nc3c(-c4ccc(F)cc4)cccn3n1)C2 (stereo not drawn) [Example 55] , answer whether its inhibition at 10 µM meets or surpasses 20%.
Response line: -1

Prompt line: Given the entry CCn1ncc2c1CCC(Nc1nc3c(-c4cnccc4OC)cccn3n1)C2 (stereo not drawn) [Example 68] , answer whether its inhibition at 10 µM meets or surpasses 20%.
Response line: 1

Prompt line: Given the entry Cc1cc(F)ccc1-c1cccn2nc(NC3CCc4c(cnn4C(C)C)C3)nc12 (stereo not drawn) [Example 44] , answer whether its inhibition at 10 µM meets or surpasses 20%.
Response line: -1

Prompt line: Given the entry CCn1nnc2c1CCC(Nc1nc3c(-c4ccc(F)cc4C)cccn3n1)C2 (stereo not drawn) [Example 51] , answer whether its inhibition at 10 µM meets or surpasses 20%.
Response line: -1

Prompt line: Given the entry CCn1ncc2c1CC[C@H](Nc1nc3c(-c4ccc(F)c(Cl)c4)cccn3n1)C2 [Example S-61] , answer whether its inhibition at 10 µM meets or surpasses 20%.
Response line: -1

Prompt line: Given the entry Cc1cc(F)ccc1-c1cccn2nc(NC3CCc4c(cnn4C)C3)nc12 (stereo not drawn) [Example 10] , answer whether its inhibition at 10 µM meets or surpasses 20%.
Response line: -1

Prompt line: Given the entry CCn1ncc2c1CCC(Nc1nc3c(-c4ccc(OC)nc4)cccn3n1)C2 (stereo not drawn) [Example 71] , answer whether its inhibition at 10 µM meets or surpasses 20%.
Response line: 1

Prompt line: Given the entry CCn1ncc2c1CCC(Nc1nc3c(-c4cncc(OC)c4)cccn3n1)C2 (stereo not drawn) [Example 70] , answer whether its inhibition at 10 µM meets or surpasses 20%.
Response line: 1

====

# target: FGFR2 (Homo sapiens, UniProt P21802)
# Sequence (P21802 22-821): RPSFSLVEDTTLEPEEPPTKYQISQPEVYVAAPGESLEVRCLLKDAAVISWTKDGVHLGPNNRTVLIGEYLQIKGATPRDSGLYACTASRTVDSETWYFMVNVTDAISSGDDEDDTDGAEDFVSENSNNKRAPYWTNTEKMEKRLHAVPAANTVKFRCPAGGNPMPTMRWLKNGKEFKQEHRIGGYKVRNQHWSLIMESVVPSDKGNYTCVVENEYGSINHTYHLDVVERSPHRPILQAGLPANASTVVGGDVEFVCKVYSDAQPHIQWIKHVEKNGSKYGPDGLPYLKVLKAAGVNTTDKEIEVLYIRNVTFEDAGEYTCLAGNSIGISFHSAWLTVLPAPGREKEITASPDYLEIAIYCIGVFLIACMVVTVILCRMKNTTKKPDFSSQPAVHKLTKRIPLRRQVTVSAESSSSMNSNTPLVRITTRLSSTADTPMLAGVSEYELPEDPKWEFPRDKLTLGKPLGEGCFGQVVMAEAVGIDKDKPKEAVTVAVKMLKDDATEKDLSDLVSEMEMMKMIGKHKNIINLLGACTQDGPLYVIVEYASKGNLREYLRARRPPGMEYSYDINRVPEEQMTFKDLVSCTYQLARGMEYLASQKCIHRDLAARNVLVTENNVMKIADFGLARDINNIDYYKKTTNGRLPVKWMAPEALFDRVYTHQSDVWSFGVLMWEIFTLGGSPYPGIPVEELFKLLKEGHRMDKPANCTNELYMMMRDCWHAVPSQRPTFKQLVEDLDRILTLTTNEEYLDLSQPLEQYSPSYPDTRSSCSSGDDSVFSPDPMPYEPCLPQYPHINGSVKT
# assay.info: Z'-LYTE SelectScreen biochemical kinase assay FGFR2
# condition.context: 10 μmolar compound concentration; ATP at Km app; read-out: FGFR2 inhibition
measured.property: inhibition at 10 µM

Parameters: items (list). Returns: inhibition at 10 µM for each item.
1. CCCn1ncc2c1CCC(Nc1nc3c(-c4ccc(F)cc4C)cccn3n1)C2 (stereo not drawn) [Example 43]
2. CCn1ncc2c1CCC(Nc1nc3c(-c4cccnc4)cccn3n1)C2 (stereo not drawn) [Example 63]

Response line:
1. < 40%
2. < 40%

Parameters: items (list). Returns: inhibition at 10 µM for each item.
1. Fc1cccc(-c2cccn3nc(Nc4ccc5[nH]cnc5c4)nc23)c1 [Cpd. 293 in WO09155551, reference compound]
2. CCn1ncc2c1CCC(Nc1nc3c(-c4cccc(Cl)c4)cccn3n1)C2 (stereo not drawn) [Example 59]
3. CCCCCn1ncc2c1CCC(Nc1nc3c(-c4ccc(F)cc4C)cccn3n1)C2 (stereo not drawn) [Example 47]
4. CCn1ncc2c1CCC(Nc1nc3c(-c4ccccc4)cccn3n1)C2 (stereo not drawn) [Example 57]

Response line:
1. > 80%
2. < 40%
3. < 40%
4. < 40%
